A short record of pKi observed with Human immunodeficiency virus type 1 protease (Human immunodeficiency virus 1) follows.
Units for pKi: none; it is -log10 of a concentration expressed in mol/L.

**Q:** // returns reported pKi for input `Cc1cccc(C[C@@H]2[C@H](O)[C@@H](O)[C@@H](Cc3cccc(C)c3)N(Cc3ccc4[nH]nc(N)c4c3)C(=O)N2Cc2ccc3[nH]nc(N)c3c2)c1`
**A:** 10.96

**Q:** Consider the compound `Cc1ccc(C)c(C[C@@H]2[C@H](O)[C@@H](O)[C@@H](Cc3cc(C)ccc3C)N(Cc3ccc4[nH]nc(N)c4c3)C(=O)N2Cc2ccc3[nH]nc(N)c3c2)c1` and give its measured pKi.
**A:** 10.47

**Q:** Please look up its pKi: `CC(C)(C)c1ccc(C[C@@H]2[C@H](O)[C@@H](O)[C@@H](Cc3ccc(C(C)(C)C)cc3)N(Cc3ccc4[nH]nc(N)c4c3)C(=O)N2Cc2ccc3[nH]nc(N)c3c2)cc1`
**A:** 9.72

**Q:** Entry under review: `CCCCc1ccc(C[C@@H]2[C@H](O)[C@@H](O)[C@@H](Cc3ccc(CCCC)cc3)N(Cc3ccc4[nH]nc(N)c4c3)C(=O)N2Cc2ccc3[nH]nc(N)c3c2)cc1` . Reported pKi?
**A:** 9.77

**Q:** Recorded pKi of `CCc1ccc(C[C@@H]2[C@H](O)[C@@H](O)[C@@H](Cc3ccc(CC)cc3)N(Cc3ccc4[nH]nc(N)c4c3)C(=O)N2Cc2ccc3[nH]nc(N)c3c2)cc1` , please.
**A:** 10.17
